- Study System: T1, recombinant biotinylated CD71 extracellular domain (Sino Biologics) with an N-terminal 6His tag (human, UniProt P02786 89-760, biotinylated (sites not given))
- T1 construct: extracellular domain; also called hCD71; huCD71
- T1 sequence (P02786 other isoform, or with tags, fused parts or gaps): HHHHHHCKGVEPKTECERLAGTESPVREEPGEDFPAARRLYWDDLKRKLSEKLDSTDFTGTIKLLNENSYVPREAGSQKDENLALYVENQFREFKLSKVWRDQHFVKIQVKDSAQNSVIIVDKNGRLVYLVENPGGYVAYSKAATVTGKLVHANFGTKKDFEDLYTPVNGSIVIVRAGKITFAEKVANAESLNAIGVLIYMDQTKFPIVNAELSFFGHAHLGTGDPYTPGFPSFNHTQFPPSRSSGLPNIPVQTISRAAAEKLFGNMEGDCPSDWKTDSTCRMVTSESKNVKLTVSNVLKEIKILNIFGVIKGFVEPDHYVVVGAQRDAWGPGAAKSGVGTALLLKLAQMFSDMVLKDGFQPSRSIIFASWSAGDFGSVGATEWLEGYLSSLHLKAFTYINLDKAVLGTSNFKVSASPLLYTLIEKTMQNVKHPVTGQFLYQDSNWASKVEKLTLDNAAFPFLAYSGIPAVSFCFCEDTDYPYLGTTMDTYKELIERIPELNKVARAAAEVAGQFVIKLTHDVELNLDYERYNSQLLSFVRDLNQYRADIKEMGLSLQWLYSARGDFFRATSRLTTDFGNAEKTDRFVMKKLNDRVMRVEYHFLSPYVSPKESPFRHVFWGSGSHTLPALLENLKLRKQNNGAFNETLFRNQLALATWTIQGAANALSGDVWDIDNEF
- Experiment Notes: screening ELISA, ratio
Measured Metric: hCD71:HSA

{"Binder": "SEQ ID NO 256 (designed binder, FN3 domain) MLPAPKNLVVSRVTEDSARLSWTAPDAAFDSFHIVYHEPRPSGEAIVLTVPGSERSYDLTGLKPGTEYEVGIVGVKGGDLSVPLSAIFTT", "Measured Metric": "hCD71:HSA", "Test Result": 900}
{"Binder": "SEQ ID NO 127 (designed binder, FN3 domain) MLPAPKNLVVSRVTEDSARLSWTAPDAAFDSFPIPYGESPPSGEAIVLTVPGSERSYDLTGLKPGTEYVVIIRGVKGGGRSGPLSAISTT", "Measured Metric": "hCD71:HSA", "Test Result": 38}
{"Binder": "SEQ ID NO 154 (designed binder, FN3 domain) MLPAPKNLVVSRVTEDSARLSWTAPDAAFDSFFIPYAEPRPDGEAIVLTVPGSERSYDLTGLKPGTEYSVLIHGVKGGLLSSPLSAIFTT", "Measured Metric": "hCD71:HSA", "Test Result": 670}
{"Binder": "SEQ ID NO 173 (designed binder, FN3 domain) MLPAPKNLVVSRVTEDSARLSWTAPDAAFDSFTIHYRELYVQAIVLTVPGSERSYDLTGLKPGTEYLVMIPGVKGGPTSVPLSAIFTT", "Measured Metric": "hCD71:HSA", "Test Result": 47}
{"Binder": "SEQ ID NO 216 (designed binder, FN3 domain) MLPAPKNLVVSRVTEDSARLSWTAPDAAFDSFPIAYAEPTPSGEAIVLTVPGSERSYDLTGLKPGTEYSVLIHGVKGGGLSLPLSAIFTT", "Measured Metric": "hCD71:HSA", "Test Result": 101}

Proceed to the following item.
Consider the binder SEQ ID NO 231 (designed binder, FN3 domain) MLPAPKNLVVSRVTEDSARLSWTAPDAAFDSFEIPYIETVALGEAIVLTVPGSERSYDLTGLKPGTEYYVEIYGVKGGSYSYPLSAISTT and give its measured hCD71:HSA.
86
